outcome.measure: melting point

Specify melting point for CS(=O)(=O)c1ccc(Oc2ccc3[nH]c(C4=NCC(CC(=O)N5CCOCC5)S4)cc3c2)cn1 (centres undefined) and stop. 168 to 169 °C

Give the reported melting point for this molecule. Cc1ccc2cccc(OCc3cccc([N+](=O)[O-])c3C)c2n1 184 to 188 °C

Could you please provide reported melting point for COc1cc2ncnc(N3CCC(NCc4ccccn4)CC3)c2cc1OC ? Thanks! 151 to 155 °C

Give melting point for COc1ccc2nnc(-c3ncc([N+](=O)[O-])n3C)n2n1 193 to 198 °C

----------
outcome.measure: melting point

// worked examples, melting point included
compound	outcome.measure	result
Cc1nc(-c2sc(-c3ccc(Cl)cc3)nc2C)sc1C(=O)O	melting point	265 to 268 °C
O=C(O)C1=Cc2cc(Cl)ccc2N(Cc2ccc(Cl)cc2)C1C(F)(F)F (stereo not drawn)	melting point	250 to 253 °C
COC1(OC)CCC2=C3C(c4ccc(C5OCC(C)(C)CO5)cc4)CC4(C)C(=O)CCC4C3CCC2(O)C1 (stereo not drawn)	melting point	194 to 202 °C
Cc1cn2c(N)c(Cl)cc(C(=O)NCC3CCN(CC(C)C)CC3)c2n1	melting point	216 to 219 °C
CS/C(NC(=O)c1ccc(SC)cc1)=C(\C#N)C(=O)Nc1ccc(C)cc1	melting point	173 to 175 °C
CCCCc1cnc(SC)[nH]c1=O	melting point	138 to 140 °C

Return melting point (reported value) for this compound: COc1cc(C)c2[nH]ccc2c1C(C)(N)c1nc2cc(C#N)ccc2[nH]1 (single isomer, unassigned; (-)) 201 °C

Write down melting point measured for item Cn1nc(Cl)cc(Nc2ccccn2)c1=O 201 to 202 °C
